The entries below are paired with their reported SPOT peptide array binding signal intensity.
- system name: AgSho1
- assay remarks: SPOT peptide array binding signal intensity (averaged, normalized) (arbitrary units (background-subtracted, floor 0; scale differs between SH3 domains)); higher = stronger binding of the SH3 domain to the peptide
measurement kind: SPOT peptide array binding signal intensity

binder	qualifier	numeric readout
MAMRPIPPLPTESEY	=	353
GPPPPLPPPLFPSSS	≤	0
APKREAPKPPANTSP	≤	0
MKRSRPSRSIPYTTP	=	30.5
NSMRPPLLIPAATTK	=	390
KFIPSRPAPKPPSSA	≤	0
RRASLFPRDPKRLRP	=	67.5
TKRKRPARLIFYDSK	=	94.5
RSVKRPRRAPRPVVS	=	5
LLGRKRPVMERVVDI	=	76.5
NLDRSKISLPDFDDE	=	11.5
SSSSTPPTLPPRRIE	=	1
RNNRPVPPPPPMRTT	=	5
PAPPPPPRASRPTPN	≤	0
NSVPIMPTLPPRPYI	=	21
NMLSRPRLAKLPSIR	=	388
GKLKHIPRRPYEIER	≤	0
ISPPASPPPEFDFSK	≤	0
RRRRRPHRIERPLSN	=	37.5
PSRRDSLSIPRAVDA	≤	0
RKNRAPPQRPRFNRD	=	37
DLFKPLPEPPTELGR	=	1410
RRARRQMGIPTISQV	=	287
VKPRQLFPIPLNKVD	=	8
NLKKRPPTAPQRKIS	=	33.5
EEEEEHPPLPARRKS	=	8
NNNKMRPHLPPLSSG	=	559
PPIPNAPLSPAPAVP	≤	0
RRLRDKYKLPIVDAD	=	83
EREKALPPIPFTTTL	=	5670
